# systemName: BRD2 BD1 (Homo sapiens)
# Sequence (P25440 74-180 limits assumed): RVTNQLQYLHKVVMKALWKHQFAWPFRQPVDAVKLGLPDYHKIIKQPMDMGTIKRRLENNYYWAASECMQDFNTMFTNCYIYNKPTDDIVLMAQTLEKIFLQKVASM
# assaySummary: TR-FRET binding assay, isolated recombinant BD

{"molecule": "COc1cc(OC)c2c(=O)cc(-c3cc(C)c(OC[C@@H](O)CN4CCCCC4)c(C)c3)oc2c1 [Compound 42]", "systemName": "BRD2 BD1 (Homo sapiens)", "IC50, µM": 1.2}

----------
# assaySummary: In vivo PK profiles in rats
# runConditions: rat, plasma, iv, 10 mg/kg
The following compounds are shown together with reported half-life values.

{"chemicalSmiles": "COc1cc(OC)c2c(=O)cc(-c3cc(C)c(OC[C@H](O)CN4CCCCC4)c(C)c3)oc2c1", "half-life": "3 to 4 h"}
{"chemicalSmiles": "COc1cc(OC)c2c(=O)cc(-c3cc(C)c(OC[C@H](O)CN4CCN(C)CC4)c(C)c3)oc2c1", "half-life": "3 to 4 h"}
